Target: T1, 4H619-bA
T1 chain: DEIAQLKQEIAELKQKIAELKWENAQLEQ
Assay: two-hybrid library CCNG1;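 note: natural log of median RNA to DNA barcode read ratio; higher means stronger binding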
endpoint: interaction score
// no unit string in output, number only

*Q* Consider the binder shown here: DENAQLEQKNAELEQKIAELKWEIAQLEQ [4H1449-bA] What is its recorded interaction score?
*A* -1.52

*Q* Please do the same for DKNAQLEQEIAELEQKNAELKWEIAQLEQ [4H3129-bA] as well.
*A* -1.59

*Q* Please do the same for DENAQLKQEIAELKQENAELKWKIAQLEQ [4H1629-bA] as well.
*A* -0.0748

*Q* Please do the same for DEIAQLKQEIAELKQKIAELKWENAQLEQ [4H619-bA] as well.
*A* -0.211

*Q* Please do the same for DEIAQLKQEIAELKQEIAELEWKNAQLKQ [4H584-bA] as well.
*A* 1.1

*Q* Please do the same for DKNAQLKQENAELKQKIAELKWEIAQLEQ [4H3817-bA] as well.
*A* -1.25

*Q* Please do the same for DKNAQLKQKNAELEQEIAELEWKIAQLKQ [4H3974-bA] as well.
*A* -0.503
